Catalogue of pIC50 readings, one per entry.
System: GC3/MTK-
METHOD SUMMARY: Inhibition of cellular growth by the MTT colorimetric assay in GC3/M TK-, a human thymidine kinase deficient adenocarcinoma line
Schema: pIC50 number; meaning minus log10 of the concentration expressed in molar units.

Solved entries (count: 2):
| ITEM SMILES | TESTED TARGET | pIC50 |
| --- | --- | --- |
| COc1ccc(S(=O)(=O)c2ccc(CN(C)c3ccc4c5c(cccc35)C(N)=N4)cc2)cc1 | GC3/MTK- | 5.68 |
| CN(Cc1ccc(S(=O)(=O)N2CCOCC2)cc1)c1ccc2c3c(cccc13)C(=N)N2 | GC3/MTK- | 6.05 |

Task item: Short answer please: pIC50, GC3/MTK-, entry COc1ccc(S(=O)(=O)c2ccc(CN(C)c3ccc4c5c(ccc(C)c35)C(N)=N4)cc2)cc1
Reply: 6.01

Task item: For the record Cc1ccc2c3c(ccc(N(C)Cc4ccc(S(=O)(=O)c5ccc(N)cc5)cc4)c13)N=C2N , what value of pIC50 is listed for GC3/MTK-?
Reply: 6.57

Task item: What value of pIC50 on GC3/MTK- does CN(Cc1ccc(S(=O)(=O)c2ccc(O)cc2)cc1)c1ccc2c3c(cccc13)C(N)=N2 have?
Reply: 5.39

* * *

Test system: GC3/MTK-
METHOD SUMMARY: Inhibition of cellular growth by the MTT colorimetric assay in GC3/M TK-, a human thymidine kinase deficient adenocarcinoma line
ENDPOINT LABEL: IC50

| ITEM SMILES | TESTED TARGET | RESULT |
| --- | --- | --- |
| O=C1Nc2ccc(NCc3ccc(S(=O)(=O)c4ccccc4)cc3)c3cccc1c23 | GC3/MTK- | > 4 µM |

Task item: IC50 for COc1ccc(S(=O)(=O)c2ccc(CN(C)c3ccc4c5c(ccc(C)c35)C(NO)=N4)cc2)cc1 ?
Reply: > 10 µM

Task item: Suppose we examine the compound CN(Cc1ccc(S(=O)(=O)N2CCOCC2)cc1)c1ccc2c3c(ccc(Cl)c13)C(=O)N2 ; what IC50 value has been reported?
Reply: > 5 µM

Task item: Consider the compound shown here: CSCN(Cc1ccc(S(=O)(=O)c2ccccc2)cc1)c1ccc2c3c(cccc13)C(=O)N2 What is its recorded IC50?
Reply: > 10 µM

Task item: Field request: IC50 | item: CNC1=Nc2ccc(N(C)Cc3ccc(S(=O)(=O)N4CCOCC4)cc3)c3cccc1c23
Reply: > 5 µM

Task item: Quick one: IC50 for Cc1ccc2c3c(ccc(N(C)Cc4ccc(S(=O)(=O)N5CCOCC5)cc4)c13)NC2=O ?
Reply: > 5 µM
